tested-system: T1, PD-L1 on 293T cells (UniProt Q9NZQ7 19-290)
T1 construct: whole, on cells; also called PD-L1-293T; 293T-PD-L1 cells
T1 sequence (Q9NZQ7 19-290 limits assumed): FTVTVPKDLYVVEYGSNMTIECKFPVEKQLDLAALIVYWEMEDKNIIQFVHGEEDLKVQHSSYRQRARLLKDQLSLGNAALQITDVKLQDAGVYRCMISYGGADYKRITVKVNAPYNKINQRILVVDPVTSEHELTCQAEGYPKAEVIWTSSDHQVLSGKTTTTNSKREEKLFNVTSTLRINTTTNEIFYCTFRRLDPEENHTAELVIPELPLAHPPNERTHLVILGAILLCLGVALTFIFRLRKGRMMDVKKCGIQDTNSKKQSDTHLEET
test-method-notes: flow cytometry competition: blocks biotin-labeled PD-1 binding to PD-L1-293T cells
Protocol: Briefly, PD-L1-293T cells were suspended in FACS buffer (PBS with 3% fetal calf serum). Various concentrations of the hybridoma (FIG. 10), chimeric (FIG. 11), or humanized (FIG. 12) anti-PD-L1 antibodies were added to the cell suspension and incubated at 4° C. for 60 minutes in 96 well plates. […] The cells were washed 3 times with PBS and incubated with mouse anti-biotin PE (Biolegend, cat# 409004). The cell-associated fluorescence was then detected by flow cytometry analysis using FACS array.
experimental-endpoint: IC50 (µg/mL)
Give just the numeric value; µg/mL need not be written.

For the binder ch8C6-hIgG4 (antibody, V domains shown, Mouse-human chimeric IgG4 (F234A/L235A), human kappa; also called Chimeric 8C6-IgG4 (F234A/L235A); chimeric 8C6-hIgG4) VH: QVQLKQSGPGLVQPSQSLSITCTVSGFSLTSYGVHWVRQSPGKGLEWLGVIWSGGVTDYNAAFISRLSISKDNSKSQVFFKMNSLQANDTAIYYCARLGFYAMDYWGQGTSVTVSS VL: SIVMTQTPKFLLVSAGDRVTITCKASQSVSNDVGWYQQKPGQSPKLLIYYASNRYSGVPDRFTGSGYGTDFTFTISTVQAEDLAVYFCQQDYTSPYTFGGGTKLEIKR , what IC50 is on record?
0.0349

Which IC50 value belongs to m8C6 (antibody, V domains shown, Murine hybridoma IgG (printed 'mIgG'); also called 8C6-mIgG; 8C6 murine) VH: QVQLKQSGPGLVQPSQSLSITCTVSGFSLTSYGVHWVRQSPGKGLEWLGVIWSGGVTDYNAAFISRLSISKDNSKSQVFFKMNSLQANDTAIYYCARLGFYAMDYWGQGTSVTVSS VL: SIVMTQTPKFLLVSAGDRVTITCKASQSVSNDVGWYQQKPGQSPKLLIYYASNRYSGVPDRFTGSGYGTDFTFTISTVQAEDLAVYFCQQDYTSPYTFGGGTKLEIK ?
0.0082

Bench note: what IC50 did m4A8 (antibody, V domains shown, Murine hybridoma IgG (printed 'mIgG'); also called 4A8-mIgG; 4A8 murine) VH: QVQLKQSGPGLVQPSQSLSITCTVSGFSLTSYGVHWVRQSPGKGLEWLGVIWSGGITDYNAAFKSRLSISKDNSKSQVFFKMNSLQANDTAIYFCARLGFYAMDYWGQGTSVTVSS VL: QIVLTQSPAIMSASPGEKVTMTCSANSSVSYMHWYQQKSGTSPKRWIYDTSKLASGVPARFSGSGSGTSYSLTISSMGAEDAATYYCQQWSSNPWTFGGGTKLEIK show?
0.0291
